# TEST TARGET: T1, amylin receptor (nucleus accumbens membranes prepared from rat brain) (rat, UniProt P32214 25-516)
# T1 construct: whole, on cells; Native receptor in washed rat basal forebrain membranes; also called amylin receptors; Amylin RBA
# T1 sequence (P32214 25-516): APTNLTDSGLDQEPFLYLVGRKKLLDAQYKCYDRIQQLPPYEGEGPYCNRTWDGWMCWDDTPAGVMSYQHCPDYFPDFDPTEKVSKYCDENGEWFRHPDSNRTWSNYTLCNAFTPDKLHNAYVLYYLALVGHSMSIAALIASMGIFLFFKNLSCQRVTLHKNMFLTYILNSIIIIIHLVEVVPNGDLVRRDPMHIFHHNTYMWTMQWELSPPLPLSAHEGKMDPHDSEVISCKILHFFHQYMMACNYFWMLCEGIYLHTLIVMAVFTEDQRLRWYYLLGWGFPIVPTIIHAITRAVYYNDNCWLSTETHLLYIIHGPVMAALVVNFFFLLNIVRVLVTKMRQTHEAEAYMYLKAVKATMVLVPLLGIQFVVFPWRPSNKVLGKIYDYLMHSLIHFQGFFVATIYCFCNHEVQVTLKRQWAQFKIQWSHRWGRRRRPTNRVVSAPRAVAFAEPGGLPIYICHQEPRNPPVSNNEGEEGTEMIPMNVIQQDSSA
# PROCEDURE DETAILS: radioligand displacement, 125I-rat amylin, rat nucleus accumbens membranes
Ends that are not written are not given here.
Form field: IC50 (one value per entry).

BINDER: RVGCGNLSTCQVQNLSHRLWQLMGPAGRQDSAPVDPSSPHSY-NH2 (ends and bridges not checked) [AFP-6 analog SEQ ID NO: 28]
IC50 / nM: 2.4
//
BINDER: RVGCGNLSTCQVQNLSHRLWQLMGPAGRQDSAPVDPSSPHSY-NH2 (ends and bridges not checked) [AFP-6 analog SEQ ID NO: 22]
IC50 / nM: 2.4
